- TEST: CCTE_Shafer_MEA_dev_AB: CCTE's Alamar Blue Assay for Cytotoxicity in the Neural Network Formation Assay, Shafer Lab (AID 2284083);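 also: resazurin reduction fluorescence as viability of cultured neurons; twelve days of exposure from plating with re-dosing on DIV 5 and 9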
Records with an inconclusive call do not appear. Calls of active or inactive are those of the source. The calls were made as follows: active = hit-call score of the fitted dose curve at least 0.9, where 1 is the maximum; inconclusive = response in the unintended direction; inactive = score below 0.9.
OBSERVATION TYPE: AC50

Study these solved cases before continuing.
                           smiles_structure  value_measured
0                       C=CCc1ccc(O)c(OC)c1        inactive
1  FC(F)(F)C(F)(F)C(F)(F)C(F)(F)C(F)(F)C(F)(F)CCI        inactive
2                     CC(=O)Oc1ccccc1C(=O)O        inactive
3                   Cc1cc(=O)[nH]c(=S)[nH]1        inactive

**Query** Endpoint output: AC50 of "OC[C@@H](O)[C@@H](O)[C@H](O)[C@H](O)CO" . Value?
**Result** 437 nM (active)

---

- TEST: ATG_VDRE_CIS: Attagene CIS-FACTORIAL HepG2 Assay for human Vitamin D Receptor Element (VDRE) (AID 2282968)
- PROTOCOL CONDITIONS: HepG2 VDRE cis-reporter transcription, actives raise or lower the signal
The source made the active and inactive calls. How the source made its calls: active means hit-call score of the fitted dose curve at least 0.9, where 1 is the maximum; inactive means score below 0.9.
Please state which outcome applies, choosing from active, inactive

Example entries and their recorded answers appear below.
                                   molecule  assigned_class
0  COCCOC[C@H](CC1(C(=O)NC2CCC(C(=O)O)CC2)CCCC1)C(=O)Oc1ccc2c(c1)CCC2 (some centres not stated)          active
1                                CCCCCCOCCO        inactive
2                        CCCCCCCCCCCC(=O)OC        inactive

**Query** I would be grateful if you could indicate the recorded call for "CCNc1cccc(C)c1" .
**Result** inactive

**Query** I would be grateful if you could indicate the recorded call for "CN1CCN(Cc2cc(-c3ccc4[nH]c(=O)oc4c3)co2)[C@@H](c2ccc(F)cc2)C1" .
**Result** active

**Query** I would be grateful if you could indicate the recorded call for "Cc1nc(C)nc(N2C[C@@H](C)N(c3ccnc([C@@H](C)O)n3)[C@@H](C)C2)n1" .
**Result** inactive

**Query** I would be grateful if you could indicate the recorded call for "Cc1ccc(Cl)cc1" .
**Result** inactive

---

- Read-out: ABC Transporter (ABCB1), ABCB1 (gene 5243)
- TEST: LTEA_HepaRG_ABCB1: Life Technologies and Expression Analysis (LTEA) Assay for ABC Transporter (ABCB1) using HepaRG (AID 2283460)
- PROTOCOL CONDITIONS: mRNA level, 48 h; actives raise or lower the signal
- Description: LTEA_HepaRG is a cell based, multiplexed-readout assay that uses HepaRG, a human liver cell line, with measurements taken at 48 hours after chemical dosing on a 96-well plate.LTEA_HepaRG_ABCB1 is one of 102 assay component(s) measured in the LTEA HepaRG cell culture assay. It is a marker of Steatosis/NR mediated transport.Data from the assay component LTEA_HepaRG_ABCB1 was analyzed into 1 endpoint. […]
Calls of active or inactive are those of the source. The calls were made as follows: active = hit-call score of the fitted dose curve at least 0.9, where 1 is the maximum; inactive = score below 0.9.
Please state which outcome applies, choosing from T = active, F = inactive

Example entries and their recorded answers appear below.
>>> print(df.to_string())
                                   compound  assigned_class
0  C[C@]12C=CC(=O)C=C1CC[C@@H]1[C@@H]2C(=O)C[C@@]2(C)[C@H]1CC[C@]2(O)C(=O)CO               T
1               NCC1(Cc2noc(=O)[nH]2)CCCCC1               F
2              CCOC(=O)C(C)(C)Oc1ccc(Cl)cc1               F
3  CCc1c(C(=O)NN2CCCCC2)nn(-c2ccc(Cl)cc2Cl)c1-c1ccc(Br)cc1               T
4           Nc1ccc(S(=O)(=O)c2ccc(N)cc2)cc1               F
5  Cc1oc(-c2ccccc2)nc1CCOc1cccc2c1ccn2CCC(=O)O               T
6                               CCCCCCCCCCC               F
7        NS(=O)(=O)c1cc2c(cc1Cl)NCNS2(=O)=O               F

**Query** I would be grateful if you could indicate the recorded call for "COC(=O)c1ccc(O)cc1" .
**Result** F

**Query** I would be grateful if you could indicate the recorded call for "COc1cc(C=O)ccc1O" .
**Result** F

---

- Read-out: Cyclin D2 (CCND2), CCND2 (gene 894)
- TEST: LTEA_HepaRG_CCND2: Life Technologies and Expression Analysis (LTEA) Assay for Cyclin D2 (CCND2) using HepaRG (AID 2283449);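 also: CCND2 transcript measured by TaqMan qRT-PCR and normalised to three housekeeping genes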
- PROTOCOL CONDITIONS: mRNA level, 48 h; actives raise or lower the signal
The source made the active and inactive calls. Rule for the calls: active = hit-call score of the fitted dose curve at least 0.9, where 1 is the maximum; inactive = score below 0.9.
OBSERVATION TYPE: outcome

Study these solved cases before continuing.
                                   compound  value_measured
0                  Cc1cccc([N+](=O)[O-])c1C        inactive
1                                CCCCCCOCCO        inactive
2  CC(CO)OC(C)CO (centres undefined) (tested in a mixture with another compound)        inactive
3                          COc1cc(C=O)ccc1O        inactive
4                             Cc1cccc(C)c1O        inactive

Alright, here's another compound for you.
**Query** Endpoint output: outcome of "CC1(C)NC(=O)NC1=O" . Value?
**Result** inactive

---

- ASSAY TARGET: Cellular tumor antigen p53 (Homo sapiens)
- TEST: TOX21_p53_BLA_p3_ratio: Tox21 HCT-116 p53 Agonism Beta-lactamase Assay, Ratio, Phase 3 (AID 2283596)
Inconclusive results are not listed. Active and inactive are the calls of the source. Rule for the calls: active = hit-call score of the fitted dose curve at least 0.9, where 1 is the maximum; inconclusive = response in the unintended direction; inactive = score below 0.9.
Please state which outcome applies, choosing from active, inactive

Example entries and their recorded answers appear below.
>>> print(df.to_string())
                              compound                              assay_target  assigned_class
0        CCOc1ccc2c(c1)C(C)=CC(C)(C)N2  Cellular tumor antigen p53 (Homo sapiens)        inactive
1   NS(=O)(=O)c1cc2c(cc1Cl)NCNS2(=O)=O  Cellular tumor antigen p53 (Homo sapiens)        inactive
2  Cc1cccc(Nc2cc(Cl)nc(SCC(=O)O)n2)c1C  Cellular tumor antigen p53 (Homo sapiens)        inactive
3                   COC(=O)c1ccc(O)cc1  Cellular tumor antigen p53 (Homo sapiens)        inactive

**Query** I would be grateful if you could indicate the recorded call for "CCCc1cc(=O)[nH]c(=S)[nH]1" .
**Result** inactive

---

- TEST: APR_HepG2_MicrotubuleCSK_72hr: Apredica 72-hour HepG2 Assay for Microtubule CSK Stabilty (AID 2282919)
- PROTOCOL CONDITIONS: HepG2 microtubule cytoskeleton, high-content imaging, actives raise or lower the signal
- Protocol: APR_HepG2_72hr is a cell-based, multiplexed-readout assay that uses HepG2, a human liver cell line, with measurements taken at 72 hours after chemical dosing in a 384-well plate.APR_HepG2_MicrotubuleCSK_72hr is one of 10 assay component(s) measured or calculated from the APR_HepG2_72hr assay. […] This assay endpoint, APR_HepG2_MicrotubuleCSK_72hr, was analyzed with bidirectional fitting relative to DMSO as the negative control and baseline of activity. […]
The source made the active and inactive calls. The calls were made as follows: active = hit-call score of the fitted dose curve at least 0.9, where 1 is the maximum; inactive = score below 0.9.
Please state which outcome applies, choosing from yes (1) for active, no (0) for inactive

**Query** I would be grateful if you could indicate the recorded call for "CN[C@H]1CC[C@@H](c2ccc(Cl)c(Cl)c2)c2ccc(S(N)(=O)=O)cc21" .
**Result** yes (1)

---

- Read-out: CYP4A11 (gene 1579)
- TEST: LTEA_HepaRG_CYP4A11: Life Technologies and Expression Analysis (LTEA) Assay for CYP4A11 using HepaRG (AID 2283486)
- PROTOCOL CONDITIONS: mRNA level, 48 h; actives raise or lower the signal
- Procedure: LTEA_HepaRG is a cell based, multiplexed-readout assay that uses HepaRG, a human liver cell line, with measurements taken at 48 hours after chemical dosing on a 96-well plate.LTEA_HepaRG_CYP4A11 is one of 102 assay component(s) measured in the LTEA HepaRG cell culture assay. It is a marker of NR mediated metabolism.Data from the assay component LTEA_HepaRG_CYP4A11 was analyzed into 1 endpoint. […]
The source made the active and inactive calls. Rule for the calls: active = hit-call score of the fitted dose curve at least 0.9, where 1 is the maximum; inactive = score below 0.9.
Please state which outcome applies, choosing from 1 for active, -1 for inactive

>>> print(df.to_string())
                           smiles_structure  assigned_class
0                                CN1CCCC1=O              -1
1       Cc1cccc(Nc2cc(Cl)nc(SCC(=O)O)n2)c1C               1
2  CN[C@H]1CC[C@@H](c2ccc(Cl)c(Cl)c2)c2ccc(S(N)(=O)=O)cc21               1
3           CNCc1cc(F)ccc1Oc1ccc(Cl)c(Cl)c1               1
4                          Cc1ccc(C)c(O)c1C              -1

**Query** I would be grateful if you could indicate the recorded call for "NCC1(Cc2noc(=O)[nH]2)CCCCC1" .
**Result** -1

**Query** I would be grateful if you could indicate the recorded call for "CCCCCCC(=O)OCC" .
**Result** -1

**Query** I would be grateful if you could indicate the recorded call for "CCNc1cccc(C)c1" .
**Result** -1

**Query** I would be grateful if you could indicate the recorded call for "CCCCCC(=O)O" .
**Result** -1

**Query** I would be grateful if you could indicate the recorded call for "CN1CCN(Cc2cc(-c3ccc4[nH]c(=O)oc4c3)co2)[C@@H](c2ccc(F)cc2)C1" .
**Result** 1

**Query** I would be grateful if you could indicate the recorded call for "c1cc(-c2ccncc2)ccn1" .
**Result** -1

**Query** I would be grateful if you could indicate the recorded call for "CC1(C)NC(=O)NC1=O" .
**Result** -1

**Query** I would be grateful if you could indicate the recorded call for "Cc1cccc([N+](=O)[O-])c1C" .
**Result** -1

**Query** I would be grateful if you could indicate the recorded call for "COc1ccc(S(=O)(=O)N2C(=O)[C@@](c3ccccc3OC)(N3C[C@H](O)C[C@H]3C(=O)N(C)C)c3cc(Cl)ccc32)c(OC)c1" .
**Result** 1

**Query** I would be grateful if you could indicate the recorded call for "CCOC(=O)C(C)(C)Oc1ccc(Cl)cc1" .
**Result** 1
